Reference for the values: ChEMBL document CHEMBL1132081

Target: Muscarinic acetylcholine receptor M1 (Homo sapiens)
Sequence (P11229 whole entry): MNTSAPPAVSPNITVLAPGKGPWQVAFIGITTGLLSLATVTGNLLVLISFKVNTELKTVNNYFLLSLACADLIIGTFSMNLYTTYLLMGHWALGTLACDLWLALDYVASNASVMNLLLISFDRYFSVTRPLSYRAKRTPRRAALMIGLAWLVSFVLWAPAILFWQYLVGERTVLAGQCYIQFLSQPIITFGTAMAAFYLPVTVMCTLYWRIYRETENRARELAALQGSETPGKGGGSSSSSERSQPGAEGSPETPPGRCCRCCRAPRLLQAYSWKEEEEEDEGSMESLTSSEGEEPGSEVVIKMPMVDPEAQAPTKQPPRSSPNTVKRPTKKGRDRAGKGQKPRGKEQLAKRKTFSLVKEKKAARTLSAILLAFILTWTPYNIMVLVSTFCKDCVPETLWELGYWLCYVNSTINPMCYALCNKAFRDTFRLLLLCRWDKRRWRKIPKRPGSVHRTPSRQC
Experiment: Binding affinity towards human muscarinic M1 receptor in CHO-KI cells using [3H]- QNB as radioligand
VALUE TYPE: Ki (nM)

C[C@@H]1OC(=O)[C@H]2C[C@H]3CCCC[C@@H]3[C@@H](CCCN3CCN(C)CC3)[C@@H]12 :: 579
CC1CCCCN1CCC[C@@H]1[C@H]2CCCC[C@@H]2C[C@@H]2C(=O)O[C@@H](C)[C@H]12 (some centres undefined) :: 399

a = CC1CN(CCC[C@@H]2[C@H]3CCCC[C@@H]3C[C@@H]3C(=O)O[C@@H](C)[C@H]23)C(C)CN1 (some centres undefined)
b = C[C@@H]1OC(=O)[C@H]2C[C@H]3CCCC[C@@H]3[C@@H](CCCN3CCCC(O)C3)[C@@H]12 (some centres undefined)
stdin: Param pair: a , b . Output: the one whose Ki is numerically greater. Write the label of whichever entry you select.
stdout: b
(b: 1530 nM, a: 353 nM)

P = C[C@@H]1OC(=O)[C@H]2C[C@H]3CCCC[C@@H]3[C@@H](CCCNC34CC5CC(CC(C5)C3)C4)[C@@H]12
Q = C[C@@H]1OC(=O)[C@H]2C[C@H]3CCCC[C@@H]3[C@@H](CCCN3CCN[C@@H](C)C3)[C@@H]12
stdin: Kindly compare P with Q and tell me which has the lower Ki figure. Write the label of whichever entry you select.
stdout: P
(P: 136 nM, Q: 581 nM)

P = C[C@@H]1OC(=O)[C@H]2C[C@H]3CCCC[C@@H]3[C@@H](CCCN3CCOCC3)[C@@H]12
Q = C[C@@H]1OC(=O)[C@H]2C[C@H]3CCCC[C@@H]3[C@@H](CCCN3CCN(C4CCCCC4)CC3)[C@@H]12
stdin: Param pair: P , Q . Output: the one whose Ki is numerically greater. Write the label of whichever entry you select.
stdout: Q
(Q: 464 nM, P: 222 nM)

A = C[C@@H]1OC(=O)[C@H]2C[C@H]3CCCC[C@@H]3[C@@H](CCCN3CCCCC3)[C@@H]12
B = C[C@@H]1CN(CCC[C@@H]2[C@H]3CCCC[C@@H]3C[C@@H]3C(=O)O[C@@H](C)[C@H]23)CCN1
stdin: Kindly compare A with B and tell me which has the lower Ki figure. Write the label of whichever entry you select.
stdout: A
